- ASSAY: clinical
- ASSAY CONDITIONS: human, plasma, oral, 40 mg
MEASUREMENT NAME: AUC(0-t) (ng·h/mL)
Just the number please, in ng·h/mL, no unit attached.

Record summary for COc1ccc2[nH]c([S+]([O-])Cc3ncc(C)c(OC)c3C)nc2c1 (stereo not shown) [Omeprazole Powder] : reported AUC(0-t) = 225

====

- ASSAY: clinical
- ASSAY CONDITIONS: human, plasma, oral, 40 mg
MEASUREMENT NAME: AUC(0-inf) (ng·h/mL)
Just the number please, in ng·h/mL, no unit attached.

Record summary for COc1ccc2[nH]c([S+]([O-])Cc3ncc(C)c(OC)c3C)nc2c1 (stereo not shown) : reported AUC(0-inf) = 225

These data points were gathered from patent US20150011588A1.
